Recorded T/C for the following compounds
# Tested on: L1210 leukemia ip in BDF1 mice, survival T/C
# experiment description: NCI In Vivo Anticancer Drug Screen. Data for tumor model L1210 Leukemia (intraperitoneal) in B6D2F1 (BDF1) mice
# run parameters: endpoint: mean survival time; dose: 50.0 mg/kg/injection; schedule: Q01DX001 (ip); vehicle: carboxymethylcellulose (CMC); higher = longer survival
# Procedure: The antitumor activity of compounds was measured in mice bearing transplantable tumors. Survival or tumor size were measured and the results are expressed as the measurement made in the treated group (T) divided by the measurement made in the vehicle treated control group (C). The tumor model used in this assay is L1210 Leukemia (intraperitoneal) in B6D2F1 (BDF1) mice
Toxic doses and inconclusive results are not listed.

Use the examples below as a reference point.
[
  {
    "compound": "O=C1C(=O)c2cc(Cl)ccc2-c2ccccc21",
    "T/C": "100 % of control"
  },
  {
    "compound": "CCOC(=O)/C(C#N)=C\\c1cc(O)c(O)c(OC)c1",
    "T/C": "100 % of control"
  },
  {
    "compound": "C[Si](C)(C)OCCCCCCCl",
    "T/C": "108 % of control"
  },
  {
    "compound": "COc1cc(N(CCCl)CCCl)ccc1C=Nc1cccc(Cl)c1",
    "T/C": "114 % of control"
  },
  {
    "compound": "COc1cccc2cc[nH]c12",
    "T/C": "105 % of control"
  }
]

Lookup: Note T/C for the compound shown: "ClCCN(CCCl)c1ccc(C=Nc2ccc(-c3ccccn3)cc2)cc1"
Found: 102 % of control

Lookup: Note T/C for the compound shown: "CC(=O)Nc1cc(F)c2c(c1)Cc1cc(F)ccc1-2"
Found: 102 % of control

Lookup: Note T/C for the compound shown: "CCC/C=C(\C)C#CC1=CCCCC1"
Found: 97 % of control

Lookup: Note T/C for the compound shown: O=S1(=O)CC2(N3CCOCC3)CCCCC21 (stereo unspecified)
Found: 98 % of control

Lookup: Note T/C for the compound shown: Nc1nc2ncc(CCCNc3ccc(C(=O)NC(CCC(=O)O)C(=O)O)cc3)nc2c(=O)[nH]1 (stereo unspecified)
Found: 94 % of control

Lookup: Note T/C for the compound shown: "c1cc[c]([Hg][S]c2nc3ccccc3s2)cc1"
Found: 96 % of control

###

# System: L1210 leukemia ip in BDF1 mice, survival T/C
# experiment description: NCI In Vivo Anticancer Drug Screen. Data for tumor model L1210 Leukemia (intraperitoneal) in B6D2F1 (BDF1) mice
# run parameters: endpoint: mean survival time; dose: 400.0 mg/kg/injection; schedule: Q04DX003 (ip); vehicle: saline; higher = longer survival
Toxic doses and inconclusive results are not listed.
parameter measured: T/C

Use the examples below as a reference point.
[
  {
    "molecule": "CCOC(=O)C[N+]1(C)CCC(O)CC1 (stereo not drawn)",
    "T/C": "101 % of control"
  },
  {
    "molecule": "CCCCCCCCSC(C)(C)C",
    "T/C": "93 % of control"
  },
  {
    "molecule": "C1CCC(=[N+]2CCCC2)CC1",
    "T/C": "102 % of control"
  },
  {
    "molecule": "O=C(O)c1cc(/C=C/c2ccccc2)ccc1[N+](=O)[O-]",
    "T/C": "100 % of control"
  },
  {
    "molecule": "[Cl][Gd]([Cl])[Cl]",
    "T/C": "95 % of control"
  }
]

Lookup: Note T/C for the molecule shown: "C=C1C=C(C)N(C(=O)c2ccccc2)CCN1C(=O)c1ccccc1"
Found: 106 % of control

Lookup: Note T/C for the molecule shown: "O=c1oc2c(-c3ccccc3)cccc2c(O)c1-c1ccccc1"
Found: 93 % of control

Lookup: Note T/C for the molecule shown: "COc1ccccc1/C=C/c1ccnc2ccccc12"
Found: 93 % of control

Lookup: Note T/C for the molecule shown: "CC1(C)C(=O)C(C)(C)C1=NO"
Found: 103 % of control

Lookup: Note T/C for the molecule shown: NC(=O)NOCC(N)C(=O)O (stereo not drawn)
Found: 97 % of control

Lookup: Note T/C for the molecule shown: "O=C(N/N=C/C=C/c1ccccc1)[C@H](O)[C@@H](O)C(=O)N/N=C/C=C/c1ccccc1"
Found: 97 % of control

Lookup: Note T/C for the molecule shown: "CCOC(=O)/C(Cc1ccc2c(c1)OCO2)=N\O"
Found: 103 % of control

Lookup: Note T/C for the molecule shown: "CCSC(C)C"
Found: 102 % of control

###

# System: L1210 leukemia ip in BDF1 mice, survival T/C
# experiment description: NCI In Vivo Anticancer Drug Screen. Data for tumor model L1210 Leukemia (intraperitoneal) in B6D2F1 (BDF1) mice
# run parameters: endpoint: mean survival time; dose: 400.0 mg/kg/injection; schedule: Q01DX001 (ip); vehicle: Klucel (hydroxypropylcellulose) (HPC); higher = longer survival
Inconclusive results and toxic doses are left out.
parameter measured: T/C

Use the examples below as a reference point.
[
  {
    "compound": "O=C(Nc1cccc(O)c1)Nc1ccccc1F",
    "subject of test": "L1210 leukemia ip in BDF1 mice, survival T/C",
    "T/C": "104 % of control"
  },
  {
    "compound": "CC(=O)OCC1OC(NC(=O)NCCCl)C(OC(C)=O)C(OC(C)=O)C1OC(C)=O (configuration not stated)",
    "subject of test": "L1210 leukemia ip in BDF1 mice, survival T/C",
    "T/C": "104 % of control"
  },
  {
    "compound": "CCC(C(=O)c1ccc(Cl)cc1)C(O)(C(F)(F)F)C(F)(F)F (configuration not stated)",
    "subject of test": "L1210 leukemia ip in BDF1 mice, survival T/C",
    "T/C": "112 % of control"
  },
  {
    "compound": "O=C(O)CC(NCc1ccccc1)C1CCCCC1 (configuration not stated)",
    "subject of test": "L1210 leukemia ip in BDF1 mice, survival T/C",
    "T/C": "98 % of control"
  },
  {
    "compound": "O=c1c2ccccc2n2nnc3cccc1c32",
    "subject of test": "L1210 leukemia ip in BDF1 mice, survival T/C",
    "T/C": "92 % of control"
  }
]

Lookup: Note T/C for the compound shown: "CC(=O)Nc1ncc(CCC2OCCO2)c(=O)[nH]1"
Found: 98 % of control

Lookup: Note T/C for the compound shown: "C=CCNC(=O)NCCSC(=O)SCCCC"
Found: 100 % of control

Lookup: Note T/C for the compound shown: "CC(C)CCC[C@@H](C)[C@H]1CC[C@H]2[C@@H]3CC[C@H]4C[C@H]5N[C@H]5C[C@]4(C)[C@H]3CC[C@]12C"
Found: 90 % of control

Lookup: Note T/C for the compound shown: "CCOc1ccc(-n2c(O)c(N=Nc3ccc(Cl)cc3)c(=O)n(-c3ccc(OC)cc3)c2=S)cc1"
Found: 96 % of control

Lookup: Note T/C for the compound shown: "COc1cc2c(cc1OC)C1(NCC2)C(=O)c2ccccc2C1=O"
Found: 117 % of control

Lookup: Note T/C for the compound shown: "CCOc1ccc(NC(=O)N/N=C(\C)CC(C)C)cc1"
Found: 91 % of control

Lookup: Note T/C for the compound shown: O=C(NC1CCCCC1)C1COc2ccccc2O1 (configuration not stated)
Found: 98 % of control

###

# Tested on: L1210 leukemia ip in BDF1 mice, survival T/C
# experiment description: NCI In Vivo Anticancer Drug Screen. Data for tumor model L1210 Leukemia (intraperitoneal) in B6D2F1 (BDF1) mice
# run parameters: endpoint: mean survival time; dose: 200.0 mg/kg/injection; schedule: Q01DX009 (ip); vehicle: Klucel (hydroxypropylcellulose) (HPC); higher = longer survival
Toxic doses and inconclusive results are not listed.
parameter measured: T/C

[
  {
    "compound": "Cc1ccccc1SC(=O)Nc1cccc(Cl)c1Cl",
    "val": "87 % of control"
  },
  {
    "compound": "CC(=O)Nc1nn[nH]n1",
    "val": "91 % of control"
  },
  {
    "compound": "CCN(CCO)CCNc1ccc(CO)c2sc3cc(Cl)ccc3c(=O)c12",
    "val": "91 % of control"
  },
  {
    "compound": "CCOC(=O)C1C(=O)C(C(C(=O)OC2CC(C)CCC2C(C)C)N(CCCl)CCCl)C(=O)C(C(=O)OCC)C1c1ccc(O)cc1 (stereo not given) (tested in a mixture with another compound)",
    "val": "111 % of control"
  }
]

Kindly review the next compound as well.
Lookup: Note T/C for the compound shown: "N/N=C/C=N/Nc1cnccn1"
Found: 86 % of control
